System: LOX IMVI
Experimental Protocol: NCI tumour cell line growth inhibition, 48 h
The source made the active and inactive calls. Rule as the data show it: active = GI50 up to about 1.1 µM and inactive = higher.
Entries and their GI50 values follow.

Molecule: CC1(C)/C(=N\NC(N)=O)C2CCC1C2 (stereo not given)
GI50: > 100 µM (inactive)
//
Molecule: COc1cc2cc3c4c(cc(OC)c(OC)c4c2cc1OC)CCN3
GI50: 28.6 µM (inactive)
//
Molecule: C=CC/C=C/C/C=C/CCCCCCCc1cccc(O)c1C(=O)O
GI50: 44.7 µM (inactive)

Name the recorded GI50 for C=C[C@@H](C)[C@H](NS(=O)(=O)c1ccc(C)cc1)C(=O)OCC .
19.7 µM (inactive)

Name the recorded GI50 for C=CCOC1=C2CC[C@H](O)[C@@]2(C)CCC1=O .
> 100 µM (inactive)

---

Tested on: XF498
Experimental Protocol: NCI tumour cell line growth inhibition, 48 h
Calls of active or inactive are those of the source. No stated cut-off is given here; in the data, active = GI50 up to about 1.1 µM and inactive = higher.
Test Readout: GI50

Take a look at these entries with their results.
Molecule: C=CC/C=C/C/C=C/CCCCCCCc1cccc(O)c1C(=O)O
System Under Test: XF498
Test Readout: GI50
Reported: > 100 µM (inactive)

Molecule: O=S(O)CCCCSSCCCCS(=O)(=O)S
System Under Test: XF498
Test Readout: GI50
Reported: 15.3 µM (inactive)

Molecule: O=CC1=CCC2c3[nH]c4ccccc4c3CCN2C1 (stereo unspecified)
System Under Test: XF498
Test Readout: GI50
Reported: 72.3 µM (inactive)

Name the recorded GI50 for O=S(O)c1cc(Cl)cc(Cl)c1O .
> 100 µM (inactive)

Name the recorded GI50 for CC(=O)c1cccc(NC(=O)C(=O)NNc2nnc(S)n2N)c1 .
12.7 µM (inactive)

Name the recorded GI50 for CC(=O)NNc1nc(C)c(C(/C=C/c2ccc(Cl)cc2)=N\N=C(N)N)s1 .
> 100 µM (inactive)

Name the recorded GI50 for CCOC(OC1=C(C#N)CCC1)C(CC)[Se]c1ccccc1 (stereo unspecified) .
24.9 µM (inactive)

Name the recorded GI50 for CCOc1ccccc1NC(=O)CCc1n[nH]c(=S)o1 .
> 100 µM (inactive)

Name the recorded GI50 for Cc1ccc(NCCN(C)C)c2c(=O)c3cc(O)ccc3sc12 .
4.12 µM (inactive)

Name the recorded GI50 for N#CC12Cc3ccc4c(c3-c3cccc(c31)CCN2C(=O)c1ccccc1)OCO4 (stereo unspecified) .
45 µM (inactive)

Name the recorded GI50 for COc1ccc(N2C(=O)c3c(c4[nH]c5ccccc5c4c4ccc(C(C)(C)C)cc34)C2=O)cc1 .
20.7 µM (inactive)

---

Tested on: EKVX
Experimental Protocol: NCI tumour cell line growth inhibition, 48 h
Activity calls are given as the source filed them. Cut-off read from the data, not from the text of the source: active = GI50 up to about 1.1 µM and inactive = higher.
Hi there, use one of these labels in your reply, thanks! active, inactive

Molecule: O=C(/C=C(\S/C=C(/c1ccccc1)N1CCn2c(C(=O)c3ccccc3)c(C(=O)c3ccccc3)c(C(=O)c3ccccc3)c21)C(=O)c1ccccc1)c1ccccc1
System Under Test: EKVX
Answer Label: inactive

Assay outcome for CCCCCc1cc2cc3c(c(O)c2c(=O)[nH]1)C1(CC3)C(=O)c2c(O)c3c(c(O)c2C1=O)C(=O)C(OC)=CC3=O (stereo unspecified) : what was it?
active

Assay outcome for O=C(Nc1ccc(F)cc1)C(=O)C(C(=O)c1ccccc1F)C1OC(=O)c2ccccc21 (stereo unspecified) : what was it?
inactive

Assay outcome for CC1CC/C(=C\c2ccc(N(C)C)cc2)C(=O)/C1=C/c1ccc(N(C)C)cc1 (stereo unspecified) : what was it?
inactive

Assay outcome for Cc1cccc(C)c1NC(=O)C(=O)Cc1nc2ccccc2s1 : what was it?
inactive

Assay outcome for COC(=O)C1=C(C)NC2=C(C(=O)c3ccccc32)C1c1cn(-c2ccccc2)nc1-c1ccccc1 (stereo unspecified) : what was it?
inactive

Assay outcome for COc1ccc2nc3c(nc2c1)C(C)(C)C=C3c1ccc(Br)cc1 : what was it?
inactive

Assay outcome for CCCCCCCCCCCCCCCCOP(=O)(O)OCC(N)C(=O)O (stereo unspecified) : what was it?
inactive

Assay outcome for Clc1ccc(OCCSCCCCCCCCCCSCCOc2ccc(Cl)cc2)cc1 : what was it?
inactive

Assay outcome for CC(c1ccccc1)N1CC(C)(c2ccccc2)N(O)C(c2ccccc2)C1C (stereo unspecified) : what was it?
inactive

---

Tested on: EKVX
Experimental Protocol: NCI tumour cell line growth inhibition, 48 h
Active and inactive are the calls of the source. No stated cut-off is given here; in the data, active = GI50 up to about 1.1 µM and inactive = higher.
Hi there, use one of these labels in your reply, thanks! y (active), n (inactive)

Compound: N#CC1C(=O)SC2c3ccccc3C(=O)c3ccccc3C12 (centres undefined)
Answer Label: n
//
Compound: CCCCCCCCCCCCOP(=O)(O)OCC(N)C(=O)O (centres undefined)
Answer Label: n
//
Compound: O=C(C=P(c1ccccc1)(c1ccccc1)c1ccccc1)c1ccc(-c2cccs2)cc1
Answer Label: n
//
Compound: CN(C)CCNc1ccc2ncnc3c2c1C(=O)c1ccccc1-3
Answer Label: y
//
Compound: Cc1nc(-n2nc(-c3ccccc3)cc2-c2ccccc2)sc1C(=O)/C=C/c1ccc(Cl)cc1
Answer Label: n
//
Compound: Cc1cn([C@@H]2O[C@H](CO[Si](C)(C)C(C)(C)C)[C@]3(O[C@H]3C(=O)NO)[C@H]2O[Si](C)(C)C(C)(C)C)c(=O)[nH]c1=O
Answer Label: n
//
Compound: Cc1cc2c(=O)cc(-c3ccc(C(F)(F)F)cc3)oc2c(C(=O)O)c1C
Answer Label: n
//
Compound: COC(=O)[C@H]1[C@H](C(=O)OC)[C@@H](C)c2c(ccc3c2[nH]c2ccccc23)[C@@H]1C
Answer Label: n

Assay outcome for COc1ccc(N2C(=O)C(=O)N(c3ccccc3[N+](=O)[O-])C2=S)cc1 : what was it?
n

---

System: COLO 205
Experimental Protocol: NCI tumour cell line growth inhibition, 48 h
Counter-ions that a name gives are not always drawn. Calls of active or inactive are those of the source. No stated cut-off is given here; in the data, active = GI50 up to about 1.1 µM and inactive = higher. Residues, ends and D or L forms follow the SMILES beside them. *: point of attachment. Tfa = O=C(C(F)(F)F)*
Hi there, use one of these labels in your reply, thanks! true for active, false for inactive

Molecule: O=C(ON=c1c2ccccc2ccc2ccccc12)c1ccccc1
Answer Label: false
--
Molecule: Oc1cc(-c2cccc(Cl)c2)nc2ncccc12
Answer Label: true
--
Molecule: COc1cc([C@@H]2c3cc4c(cc3[C@@H](NC(=O)c3cccc([N+](=O)[O-])c3)C3COC(=O)[C@@H]32)OCO4)cc(OC)c1O (stereo not given in full)
Answer Label: false
--
Molecule: CC(C)=CCNc1ncnc2c1ncn2CCC(=O)O
Answer Label: false
--
Molecule: Cc1ccc(N/N=C/C2=CC(C)(C)C(C#N)(C#N)C(O)=C2C#N)cc1
Answer Label: false
--
Molecule: CC(C)[C@@H]1NC(=O)[C@H]2N=C(O[C@@H]2C)[C@@H]2CCCN2C(=O)[C@H](Cc2ccccc2)NC(=O)[C@@H]2CSC(=N2)[C@@H](Cc2ccccc2)NC(=O)[C@@H]2CSC1=N2
Answer Label: false
--
Molecule: CCCCCC(=O)Nc1[nH]nnc1C(N)=O
Answer Label: false
--
Molecule: O=C(Nc1ccc(F)cc1)C(=O)C(C(=O)c1ccccc1F)C1OC(=O)c2ccccc21 (stereo not given)
Answer Label: false
--
Molecule: O=C(O)CC(NC(=O)C(F)(F)F)C(=O)NC(Cc1ccc(O)cc1)C(=O)O (stereo not drawn) (Tfa-Asp-Tyr-OH; configuration not given here)
Answer Label: false
--
Molecule: CN1CCc2nc(N)nc(-c3nc(N)nc4c3CN(C)CC4)c2C1
Answer Label: false

Assay outcome for CC(C)C(=O)N1C(=O)O[C@@H](c2ccccc2)[C@H]1C : what was it?
false

Assay outcome for COCn1c2ccc(OC(C)=O)cc2c2c(=O)oc(C)nc21 : what was it?
false

Assay outcome for C[Si](C)(C)C#CCO[Si](C)(C)C : what was it?
false

Assay outcome for CO[C@H]1C[C@H](n2cc(C)c(=O)[nH]c2=O)O[C@@H]1CO : what was it?
false

Assay outcome for CN(C)CCNc1ccc2ncnc3c2c1C(=O)c1ccccc1-3 : what was it?
true

Assay outcome for CC1(C)C=[N+]([O-])C(C)(C)N1 : what was it?
false

Assay outcome for O=S(=O)(/C=C/c1ccc(Cl)cc1Cl)Cc1ccccc1CS(=O)(=O)/C=C/c1ccc(Cl)cc1Cl : what was it?
false

---

Entries and their GI50 values follow.
Test system: MDA-MB-231
Experimental Protocol: NCI tumour cell line growth inhibition, 48 h
Active and inactive are the calls of the source. Cut-off read from the data, not from the text of the source: active = GI50 up to about 1.1 µM and inactive = higher.

Name the recorded GI50 for O=C(O)c1c(CC(Cc2ccc3c(c2)CCCC3)C(=O)O)ccc2c1CCCC2 (stereo not given) .
> 100 µM (inactive)

---

Tested on: M14
Experimental Protocol: NCI tumour cell line growth inhibition, 48 h
The source made the active and inactive calls. No stated cut-off is given here; in the data, active = GI50 up to about 1.1 µM and inactive = higher.
Test Readout: GI50

Take a look at these entries with their results.
Compound: CCNC(=S)NNC(=O)c1ccccc1Nc1ccccc1C(=O)NNC(=S)NCC
System Under Test: M14
GI50: > 100 µM (inactive)

Compound: COc1cc(C2C(Cl)C(=O)N2NC(=O)c2ccccc2O)cc(OC)c1OC (stereo not given)
System Under Test: M14
GI50: 6.31 µM (inactive)

Compound: c1ccc(-c2sc(-c3ccccc3)c3c2C2CCC3C2)cc1
System Under Test: M14
GI50: 35.3 µM (inactive)

Compound: COc1ccccc1C1CC(=O)CC(c2ccccc2OC)C12C(=O)NC(=S)NC2=O (stereo not given)
System Under Test: M14
GI50: 88.3 µM (inactive)

Compound: CC(=O)N(C(=O)CC(=O)N1N=C(C)C(/N=N/c2cccc([N+](=O)[O-])c2)C1=O)c1ccc(Cl)cc1 (stereo not given)
System Under Test: M14
GI50: > 10 µM (inactive)

Name the recorded GI50 for COC(=O)C1CC(=O)O[C@H]1c1ccc(OC)c(OC)c1 (stereo not given in full) .
> 100 µM (inactive)

Name the recorded GI50 for CC(C)C(=O)N1C(=O)O[C@@H](c2ccccc2)[C@H]1C .
> 100 µM (inactive)

Name the recorded GI50 for O=c1[nH]cnc2sc(=S)c3c(c12)CCC3 .
34.2 µM (inactive)

Name the recorded GI50 for N#Cc1c(NC(=O)CCC(=O)O)ccc2ccccc12 .
> 100 µM (inactive)

Name the recorded GI50 for CN(C)CCCN1c2ccccc2Sc2ccc3ccccc3c21 .
1.79 µM (inactive)

Name the recorded GI50 for CN(C)CCCNC(=O)c1cc(NC(=O)c2cc(NC(=O)[C@@H]3C[C@H]3C(=O)Nc3cc(C(=O)Nc4cc(C(=O)NCCCN(C)C)n(C)c4)n(C)c3)cn2C)cn1C .
> 100 µM (inactive)

Name the recorded GI50 for N#CC(C(=O)CCC(=O)Nc1ccc(Cl)cc1)c1ccc(Cl)cc1 (stereo not given) .
52 µM (inactive)

Name the recorded GI50 for O=C(NC(=O)c1c(F)cccc1F)Nc1cccc(Oc2ncc(Cl)cn2)c1 .
> 51.2 µM (inactive)

Name the recorded GI50 for CC(C)=CCNc1ncnc2c1ncn2CCC(=O)O .
> 100 µM (inactive)
